targetOfAssay: Cav1.3 L-type Ca channels (Rattus norvegicus, UniProt P27732)
Construct: expressed in transfected cells; host or cells: HEK293
runDescription: FLIPR Fluo-8 calcium assay, Cav1.3 channel inhibition in HEK293 cells
Format: cell-based
experimentalContext: read-out: IC50 with Cav1.3
pIC50: −log10 of the molar value.

>  <compound>
O=C1CC(=O)N(C2CC3CCC2C3)C(=O)N1CCc1ccc(Cl)cc1 (racemic) [Compound 10]

>  <pIC50>
6.22

$$$$
>  <compound>
O=C1CC(=O)N([C@@H]2C[C@@H]3CC[C@H]2C3)C(=O)N1CCc1cccc(Cl)c1 (racemic) [Compound 9]

>  <pIC50>
6.10

$$$$

---

targetOfAssay: Cav1.2 L-type Ca channels (Oryctolagus cuniculus)
Sequence (P15381 whole entry): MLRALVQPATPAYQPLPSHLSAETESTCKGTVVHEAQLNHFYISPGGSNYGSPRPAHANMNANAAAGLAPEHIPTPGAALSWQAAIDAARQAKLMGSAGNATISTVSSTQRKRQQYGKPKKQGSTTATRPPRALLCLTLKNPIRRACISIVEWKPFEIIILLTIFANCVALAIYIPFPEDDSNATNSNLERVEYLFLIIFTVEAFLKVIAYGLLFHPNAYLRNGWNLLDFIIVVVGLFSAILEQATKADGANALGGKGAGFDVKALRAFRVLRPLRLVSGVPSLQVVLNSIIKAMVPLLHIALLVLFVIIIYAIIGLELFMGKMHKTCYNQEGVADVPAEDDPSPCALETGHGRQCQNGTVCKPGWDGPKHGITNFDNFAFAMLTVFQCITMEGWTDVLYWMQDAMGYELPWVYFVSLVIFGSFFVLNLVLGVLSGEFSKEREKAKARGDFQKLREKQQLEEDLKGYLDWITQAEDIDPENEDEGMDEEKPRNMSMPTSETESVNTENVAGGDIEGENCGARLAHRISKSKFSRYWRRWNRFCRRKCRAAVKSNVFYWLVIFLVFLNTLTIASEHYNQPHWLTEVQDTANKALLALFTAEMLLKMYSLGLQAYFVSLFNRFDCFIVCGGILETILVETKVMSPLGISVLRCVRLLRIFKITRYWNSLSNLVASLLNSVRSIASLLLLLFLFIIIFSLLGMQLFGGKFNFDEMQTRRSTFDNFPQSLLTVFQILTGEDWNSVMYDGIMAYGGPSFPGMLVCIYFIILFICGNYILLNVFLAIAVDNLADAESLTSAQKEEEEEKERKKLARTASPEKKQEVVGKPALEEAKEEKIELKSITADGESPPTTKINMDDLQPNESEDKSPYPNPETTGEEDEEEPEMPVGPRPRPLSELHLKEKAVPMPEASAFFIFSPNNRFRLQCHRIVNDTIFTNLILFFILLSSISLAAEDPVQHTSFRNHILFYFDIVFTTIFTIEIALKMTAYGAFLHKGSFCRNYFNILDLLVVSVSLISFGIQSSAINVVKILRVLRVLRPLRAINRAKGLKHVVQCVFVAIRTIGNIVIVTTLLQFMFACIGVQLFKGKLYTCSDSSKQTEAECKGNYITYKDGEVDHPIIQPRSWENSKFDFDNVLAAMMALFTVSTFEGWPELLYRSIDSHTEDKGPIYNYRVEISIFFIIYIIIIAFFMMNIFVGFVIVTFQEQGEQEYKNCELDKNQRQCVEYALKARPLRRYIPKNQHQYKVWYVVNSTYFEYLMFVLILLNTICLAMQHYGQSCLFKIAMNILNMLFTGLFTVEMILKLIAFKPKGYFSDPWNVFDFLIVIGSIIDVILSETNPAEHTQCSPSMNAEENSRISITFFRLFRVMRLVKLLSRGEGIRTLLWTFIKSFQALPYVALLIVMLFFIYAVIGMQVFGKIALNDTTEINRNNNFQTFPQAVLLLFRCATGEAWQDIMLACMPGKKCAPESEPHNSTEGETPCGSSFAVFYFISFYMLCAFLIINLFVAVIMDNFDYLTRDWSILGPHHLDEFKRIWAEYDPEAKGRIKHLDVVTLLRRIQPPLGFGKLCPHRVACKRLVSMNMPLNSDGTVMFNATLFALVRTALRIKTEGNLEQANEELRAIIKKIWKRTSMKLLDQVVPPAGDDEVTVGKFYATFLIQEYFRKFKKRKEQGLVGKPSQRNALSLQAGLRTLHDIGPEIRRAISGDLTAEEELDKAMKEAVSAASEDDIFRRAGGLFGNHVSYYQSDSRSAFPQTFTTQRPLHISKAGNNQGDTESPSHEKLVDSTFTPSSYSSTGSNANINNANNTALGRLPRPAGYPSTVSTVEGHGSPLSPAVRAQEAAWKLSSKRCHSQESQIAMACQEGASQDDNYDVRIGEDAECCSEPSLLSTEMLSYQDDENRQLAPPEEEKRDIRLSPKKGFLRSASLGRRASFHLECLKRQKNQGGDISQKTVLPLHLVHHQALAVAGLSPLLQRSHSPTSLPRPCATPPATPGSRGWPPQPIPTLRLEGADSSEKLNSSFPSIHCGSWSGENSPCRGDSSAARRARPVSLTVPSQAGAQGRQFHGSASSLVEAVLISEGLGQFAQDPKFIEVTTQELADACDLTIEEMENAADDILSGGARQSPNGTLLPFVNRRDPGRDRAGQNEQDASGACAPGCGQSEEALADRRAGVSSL
Sequence (P54284 whole entry partner): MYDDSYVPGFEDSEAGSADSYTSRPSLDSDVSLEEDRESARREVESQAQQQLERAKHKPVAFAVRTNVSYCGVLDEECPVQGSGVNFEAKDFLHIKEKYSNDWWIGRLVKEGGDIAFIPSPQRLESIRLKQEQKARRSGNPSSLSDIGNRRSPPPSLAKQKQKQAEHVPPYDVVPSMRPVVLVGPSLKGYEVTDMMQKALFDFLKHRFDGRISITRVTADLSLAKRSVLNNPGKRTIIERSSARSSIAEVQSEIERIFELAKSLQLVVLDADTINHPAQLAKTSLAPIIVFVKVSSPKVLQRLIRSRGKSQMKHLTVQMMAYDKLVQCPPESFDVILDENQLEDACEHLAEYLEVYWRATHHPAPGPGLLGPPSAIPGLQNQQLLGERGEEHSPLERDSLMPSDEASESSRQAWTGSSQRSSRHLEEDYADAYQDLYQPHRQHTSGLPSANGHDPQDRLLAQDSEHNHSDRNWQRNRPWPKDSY
Sequence (P54289 25-956 partner limits assumed): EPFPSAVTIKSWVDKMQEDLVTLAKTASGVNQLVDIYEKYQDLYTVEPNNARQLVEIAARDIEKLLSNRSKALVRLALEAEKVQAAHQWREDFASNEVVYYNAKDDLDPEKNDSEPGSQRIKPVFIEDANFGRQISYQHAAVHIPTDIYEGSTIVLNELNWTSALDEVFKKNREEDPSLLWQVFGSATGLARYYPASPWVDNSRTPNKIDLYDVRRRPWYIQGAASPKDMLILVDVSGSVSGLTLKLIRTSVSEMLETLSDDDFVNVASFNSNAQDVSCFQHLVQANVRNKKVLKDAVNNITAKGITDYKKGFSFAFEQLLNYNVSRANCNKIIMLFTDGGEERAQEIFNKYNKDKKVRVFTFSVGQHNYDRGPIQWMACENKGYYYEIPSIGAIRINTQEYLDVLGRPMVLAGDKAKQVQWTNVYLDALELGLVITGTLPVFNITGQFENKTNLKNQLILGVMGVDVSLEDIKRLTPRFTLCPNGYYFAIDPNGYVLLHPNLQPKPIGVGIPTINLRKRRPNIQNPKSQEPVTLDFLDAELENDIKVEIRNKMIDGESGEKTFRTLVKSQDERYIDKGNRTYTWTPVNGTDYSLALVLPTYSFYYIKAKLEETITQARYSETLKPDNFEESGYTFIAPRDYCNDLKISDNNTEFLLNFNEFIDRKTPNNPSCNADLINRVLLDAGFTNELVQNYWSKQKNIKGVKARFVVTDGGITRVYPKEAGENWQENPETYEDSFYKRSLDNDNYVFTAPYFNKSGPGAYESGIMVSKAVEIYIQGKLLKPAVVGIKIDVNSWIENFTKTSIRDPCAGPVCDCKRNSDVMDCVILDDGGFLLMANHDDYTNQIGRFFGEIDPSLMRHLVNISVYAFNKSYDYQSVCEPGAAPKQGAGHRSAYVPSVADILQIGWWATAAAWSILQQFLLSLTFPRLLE
Sequence (P54289 957-1103 partner limits assumed): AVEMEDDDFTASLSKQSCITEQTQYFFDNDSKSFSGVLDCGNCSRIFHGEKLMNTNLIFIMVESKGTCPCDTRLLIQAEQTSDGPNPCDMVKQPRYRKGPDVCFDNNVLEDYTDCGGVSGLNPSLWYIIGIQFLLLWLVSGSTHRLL
runDescription: FLIPR Fluo-8 calcium assay, Cav1.2 channel inhibition in HEK293 cells
experimentalContext: IC50 (μM) CaV1.2, first library; FLIPR, HEK293; value (±SD)
outcomeMeasure: IC50 (µM)

>  <molecule>
CC(CN1C(=O)CC(=O)N(CCCCc2ccccc2)C1=O)c1ccccc1 (stereo not drawn) [Compound 44]

>  <value>
15.8

$$$$
>  <molecule>
O=C1CC(=O)N(CCc2cccc(F)c2)C(=O)N1CCCCc1ccccc1 [Compound 42]

>  <value>
5.3

$$$$
>  <molecule>
CCCCCCCCN1C(=O)CC(=O)N(CCc2ccc(Cl)cc2)C1=O [Compound 28]

>  <value>
2.8

$$$$
>  <molecule>
O=C1CC(=O)N(CCc2ccc3ccccc3c2)C(=O)N1CCc1ccc(F)cc1 [Compound 64]

>  <value>
3.8

$$$$
>  <molecule>
O=C1CC(=O)N(CCc2ccc(Cl)c(Cl)c2)C(=O)N1CCCCc1ccccc1 [Compound 39]

>  <value>
3.1

$$$$
>  <molecule>
O=C1CC(=O)N(Cc2cccc([N+](=O)[O-])c2)C(=O)N1CCc1ccc2ccccc2c1 [Compound 65]

>  <value>
5

$$$$
>  <molecule>
O=C1CC(=O)N(CCc2cccc(Cl)c2)C(=O)N1CCCCc1ccccc1 [Compound 38]

>  <value>
6.2

$$$$
>  <molecule>
O=C1CC(=O)N(CCc2ccc([N+](=O)[O-])cc2)C(=O)N1CCCCc1ccccc1 [Compound 46]

>  <value>
4.1

$$$$
>  <molecule>
O=C1CC(=O)N(CCc2cccc([N+](=O)[O-])c2)C(=O)N1CCCCc1ccccc1 [Compound 47]

>  <value>
3

$$$$
>  <molecule>
CC(CN1C(=O)CC(=O)N(CCc2ccc(Cl)cc2)C1=O)c1ccccc1 (stereo not drawn) [Compound 21]

>  <value>
6.2

$$$$
>  <molecule>
O=C1CC(=O)N(C2CCCCC2)C(=O)N1CCc1ccc(Cl)cc1 [Compound 1]

>  <value>
38.8

$$$$
>  <molecule>
COC(=O)[C@H](C)N1C(=O)CC(=O)N(CCc2ccc(Cl)cc2)C1=O [Compound 35]

>  <value>
88.2

$$$$
>  <molecule>
O=C1CC(=O)N(Cc2cccc([N+](=O)[O-])c2)C(=O)N1CCc1ccc(Cl)cc1 [Compound 22]

>  <value>
9.5

$$$$
>  <molecule>
O=C1CC(=O)N(Cc2ccc(Cl)cc2)C(=O)N1CCCc1ccccc1 [Compound 59]

>  <value>
26

$$$$
>  <molecule>
O=C1CC(=O)N(C2Cc3ccccc3C2)C(=O)N1CCCCc1ccccc1 [Compound 51]

>  <value>
4.9

$$$$
>  <molecule>
O=C1CC(=O)N(CCc2ccc3ccccc3c2)C(=O)N1CCc1ccc2ccccc2c1 [Compound 62]

>  <value>
1.8

$$$$
>  <molecule>
O=C1CC(=O)N(CCc2ccc(Cl)c(Cl)c2)C(=O)N1CCCc1ccccc1 [Compound 54]

>  <value>
6.9

$$$$
>  <molecule>
O=C1CC(=O)N(CCCc2ccccc2)C(=O)N1CCCCc1ccccc1 [Compound 49]

>  <value>
2.6

$$$$

FYI, the data here is from patent US20210186970A1.
